// data source = patent US9096871B2

molecular target: T. reesei CBH I, wild type, SEQ ID NO:2 (Trichoderma reesei, UniProt P62694, INS458P/R459P); assay: PASC assay, cellobiose inhibition, wild type T. reesei CBH I
Sequence (P62694 other isoform, or with tags, fused parts or gaps INS458P/R459P): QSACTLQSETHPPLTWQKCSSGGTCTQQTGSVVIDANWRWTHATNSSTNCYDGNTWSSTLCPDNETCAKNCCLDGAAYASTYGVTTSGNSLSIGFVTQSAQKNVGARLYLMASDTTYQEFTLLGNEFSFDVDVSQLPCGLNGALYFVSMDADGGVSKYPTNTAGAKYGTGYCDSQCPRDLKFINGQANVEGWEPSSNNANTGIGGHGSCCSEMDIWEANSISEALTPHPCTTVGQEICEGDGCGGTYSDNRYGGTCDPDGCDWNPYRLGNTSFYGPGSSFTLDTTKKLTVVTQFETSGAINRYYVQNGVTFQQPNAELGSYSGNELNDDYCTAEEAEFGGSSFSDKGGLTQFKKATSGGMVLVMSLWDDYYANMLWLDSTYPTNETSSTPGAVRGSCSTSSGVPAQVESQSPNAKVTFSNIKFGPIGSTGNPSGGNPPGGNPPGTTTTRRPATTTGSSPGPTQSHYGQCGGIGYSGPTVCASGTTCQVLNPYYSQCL
Measurement kind: IC50

> print(dat)
                                   compound  measurement.kind  test.value
1  OC[C@H]1O[C@@H](O[C@H]2[C@H](O)[C@@H](O)C(O)O[C@@H]2CO)[C@H](O)[C@@H](O)[C@@H]1O (stereo partly shown) [cellobiose]              IC50     8.76 mM
